target: Non-receptor tyrosine-protein kinase TYK2 (Homo sapiens, UniProt P29597); assay: Inhibition of human recombinant TYK2
Sequence (P29597 whole entry): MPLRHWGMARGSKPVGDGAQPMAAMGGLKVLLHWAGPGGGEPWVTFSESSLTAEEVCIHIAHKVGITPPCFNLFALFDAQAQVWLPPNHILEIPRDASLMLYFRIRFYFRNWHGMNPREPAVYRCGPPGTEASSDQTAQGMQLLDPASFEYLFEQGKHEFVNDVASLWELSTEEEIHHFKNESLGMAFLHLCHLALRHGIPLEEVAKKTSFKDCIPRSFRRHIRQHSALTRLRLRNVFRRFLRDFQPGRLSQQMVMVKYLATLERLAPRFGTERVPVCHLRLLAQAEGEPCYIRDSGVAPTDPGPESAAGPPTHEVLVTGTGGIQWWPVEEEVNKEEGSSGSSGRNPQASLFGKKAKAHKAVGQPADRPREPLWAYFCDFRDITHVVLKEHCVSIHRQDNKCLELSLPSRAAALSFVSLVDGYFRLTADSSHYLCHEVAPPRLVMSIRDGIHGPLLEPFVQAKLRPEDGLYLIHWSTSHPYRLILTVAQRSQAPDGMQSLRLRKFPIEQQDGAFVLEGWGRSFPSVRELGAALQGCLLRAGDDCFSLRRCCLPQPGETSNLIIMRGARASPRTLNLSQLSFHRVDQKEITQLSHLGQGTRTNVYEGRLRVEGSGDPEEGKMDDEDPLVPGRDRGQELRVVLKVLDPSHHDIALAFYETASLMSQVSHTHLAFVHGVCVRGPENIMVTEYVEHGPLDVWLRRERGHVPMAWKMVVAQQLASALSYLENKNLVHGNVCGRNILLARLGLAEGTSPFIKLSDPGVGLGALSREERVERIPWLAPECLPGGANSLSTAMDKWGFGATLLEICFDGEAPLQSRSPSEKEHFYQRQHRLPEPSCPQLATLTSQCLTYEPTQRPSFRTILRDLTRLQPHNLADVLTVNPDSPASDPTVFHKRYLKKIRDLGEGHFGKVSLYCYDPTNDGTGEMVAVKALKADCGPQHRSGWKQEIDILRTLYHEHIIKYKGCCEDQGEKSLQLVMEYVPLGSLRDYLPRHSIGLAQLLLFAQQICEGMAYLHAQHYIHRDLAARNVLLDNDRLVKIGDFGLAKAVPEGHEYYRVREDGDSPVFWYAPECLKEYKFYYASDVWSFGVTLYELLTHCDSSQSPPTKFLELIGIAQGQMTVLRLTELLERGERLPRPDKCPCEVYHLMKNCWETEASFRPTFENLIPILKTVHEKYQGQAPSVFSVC
PARAMETER: IC50 (nM)

>  <SMILES>
COc1ccc(-c2cccc3nc(NC(=O)C4CC4)nn23)cc1

>  <NUMERIC_RESULT>
519

$$$$

====

target: MAP kinase-activated protein kinase 5 (Homo sapiens, UniProt Q8IW41); experiment: Inhibition of MAPKAPK5 (unknown origin)
Sequence (Q8IW41 whole entry): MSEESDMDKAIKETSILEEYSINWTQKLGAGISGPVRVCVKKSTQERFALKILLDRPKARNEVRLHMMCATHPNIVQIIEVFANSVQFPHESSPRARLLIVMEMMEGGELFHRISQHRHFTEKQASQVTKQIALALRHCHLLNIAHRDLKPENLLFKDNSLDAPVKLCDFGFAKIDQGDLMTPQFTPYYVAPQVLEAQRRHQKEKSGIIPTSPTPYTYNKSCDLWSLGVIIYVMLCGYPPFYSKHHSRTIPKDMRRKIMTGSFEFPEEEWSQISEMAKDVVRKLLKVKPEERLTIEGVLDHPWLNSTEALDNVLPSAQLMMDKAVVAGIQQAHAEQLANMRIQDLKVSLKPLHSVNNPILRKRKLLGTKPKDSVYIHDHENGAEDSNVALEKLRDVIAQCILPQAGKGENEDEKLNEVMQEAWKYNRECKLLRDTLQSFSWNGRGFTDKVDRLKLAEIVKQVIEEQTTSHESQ
pIC50: −log10 of the molar value.

>  <SMILES>
COc1ccc(-c2cccc3nc(NC(=O)C4CC4)nn23)cc1

>  <pIC50>
< 5.00

$$$$

====

Consider the following molecules and their measured Ratio IC50 readings.
species: Homo sapiens; experiment: Selectivity index, ratio of IC50 for human recombinant JAK3 to IC50 for human recombinant JAK1
PARAMETER: Ratio IC50

>  <MOLECULE>
COc1ccc(-c2cccc3nc(NC(=O)C4CC4)nn23)cn1

>  <LIMIT_SIGN>
=

>  <NUMERIC_RESULT>
4.4

$$$$
>  <MOLECULE>
O=C(Nc1nc2cccc(-c3cccc(Cl)c3)n2n1)C1CC1

>  <LIMIT_SIGN>
=

>  <NUMERIC_RESULT>
6.7

$$$$
>  <MOLECULE>
O=C(Nc1nc2cccc(-c3ccc(CNC(=O)C(F)(F)F)cc3)n2n1)C1CC1

>  <LIMIT_SIGN>
=

>  <NUMERIC_RESULT>
9.5

$$$$
>  <MOLECULE>
COc1ncc(-c2cccc3nc(NC(=O)C4CC4)nn23)cn1

>  <LIMIT_SIGN>
>

>  <NUMERIC_RESULT>
4.1

$$$$
>  <MOLECULE>
O=C(Nc1nc2cccc(-c3cccc4ncccc34)n2n1)C1CC1

>  <LIMIT_SIGN>
=

>  <NUMERIC_RESULT>
1.5

$$$$
>  <MOLECULE>
COc1ccc(-c2cccc3nc(NC(=O)C4CC4)nn23)cc1

>  <LIMIT_SIGN>
=

>  <NUMERIC_RESULT>
7.5

$$$$
>  <MOLECULE>
O=C(Nc1nc2cccc(-c3ccc(CN4CCC(F)(F)CC4)cc3)n2n1)C1CC1

>  <LIMIT_SIGN>
=

>  <NUMERIC_RESULT>
8.7

$$$$
>  <MOLECULE>
O=C(Nc1nc2cccc(-c3cccc(OCc4ccccc4)c3)n2n1)C1CC1

>  <LIMIT_SIGN>
=

>  <NUMERIC_RESULT>
3

$$$$
>  <MOLECULE>
O=C(Nc1nc2cccc(-c3ccc(Cl)cc3)n2n1)C1CC1

>  <LIMIT_SIGN>
=

>  <NUMERIC_RESULT>
7.4

$$$$
>  <MOLECULE>
N#CCc1ccccc1NCc1ccc(-c2cccc3nc(NC(=O)C4CC4)nn23)cc1

>  <LIMIT_SIGN>
=

>  <NUMERIC_RESULT>
26

$$$$
>  <MOLECULE>
COc1ccccc1-c1cccc2nc(NC(=O)C3CC3)nn12

>  <LIMIT_SIGN>
=

>  <NUMERIC_RESULT>
2

$$$$
>  <MOLECULE>
COCc1cccc(-c2cccc3nc(NC(=O)C4CC4)nn23)c1

>  <LIMIT_SIGN>
=

>  <NUMERIC_RESULT>
3.8

$$$$
>  <MOLECULE>
O=C(Nc1nc2cccc(-c3ccc(CNC4CCS(=O)(=O)C4)cc3)n2n1)C1CC1 (stereo unspecified)

>  <LIMIT_SIGN>
=

>  <NUMERIC_RESULT>
8

$$$$
>  <MOLECULE>
O=C(Nc1nc2cccc(-c3ccccc3)n2n1)C1CC1

>  <LIMIT_SIGN>
=

>  <NUMERIC_RESULT>
7.1

$$$$
>  <MOLECULE>
O=C(Nc1nc2cccc(-c3cn[nH]c3)n2n1)C1CC1

>  <LIMIT_SIGN>
=

>  <NUMERIC_RESULT>
2.1

$$$$
>  <MOLECULE>
O=C(NCCc1ccn(-c2ccccc2)n1)c1ccc(-c2cccc3nc(NC(=O)C4CC4)nn23)cc1

>  <LIMIT_SIGN>
=

>  <NUMERIC_RESULT>
21

$$$$
